Recorded values, source patent US20060093617A1.

# measurement.target: HLA-DRB1*0301 (human)
# assay.remarks: competition vs 125I-labelled probe peptide, purified HLA-DR
readout.label: IC50 (µM)

GPRLGVRATRKTSER (modifications not checked) [… (SEQ ID NO 2149)] :: 18.9
GHRMAWDMMMNWSPT (modifications not checked) [… (SEQ ID NO 2142)] :: 0.919
PTHYVPESDAAARVT (modifications not checked) [… (SEQ ID NO 2193)] :: 4.95
